target: CHI-1R (not stated | Rhipicephallus pulchellus (zebra tick or yellow back tick)); test: SPR
pKd: −log10 of the molar value.

[
  {
    "Binder": "CCL22 (ligand) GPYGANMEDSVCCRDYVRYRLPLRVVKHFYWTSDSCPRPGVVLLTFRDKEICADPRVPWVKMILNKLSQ",
    "pKd": "< 6.30"
  },
  {
    "Binder": "CCL14 (ligand) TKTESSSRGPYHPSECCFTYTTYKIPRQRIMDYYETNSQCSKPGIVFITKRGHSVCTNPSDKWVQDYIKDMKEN",
    "pKd": 7.22
  },
  {
    "Binder": "CCL18 (ligand) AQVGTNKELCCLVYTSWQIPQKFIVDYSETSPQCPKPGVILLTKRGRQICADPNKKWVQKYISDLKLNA",
    "pKd": "< 6.30"
  },
  {
    "Binder": "CCL16 (ligand) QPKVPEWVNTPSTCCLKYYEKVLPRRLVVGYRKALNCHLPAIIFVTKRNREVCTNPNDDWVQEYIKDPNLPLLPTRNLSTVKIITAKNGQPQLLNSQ",
    "pKd": "< 6.30"
  }
]
